Data provenance is patent US10907134B2.

Relative Luminescence Activity CTZ Imax by entry:
# measurement.description: Substrate specificities of KAZ mutants (ZZ-fused, crude enzyme), CTZ
# Assay type: biochemical
# test.conditions: ZZ-fused crude enzyme; 1 μg substrate; maximum intensity of luminescence
Simply state the number, no unit and no words.

Field: example entries. Status: answers known.
# molecule, Relative Luminescence Activity CTZ Imax
measured = [
    ("KAZ-A54I: KAZ with single amino acid substitution A54I, SEQ ID NO: 6 (protein) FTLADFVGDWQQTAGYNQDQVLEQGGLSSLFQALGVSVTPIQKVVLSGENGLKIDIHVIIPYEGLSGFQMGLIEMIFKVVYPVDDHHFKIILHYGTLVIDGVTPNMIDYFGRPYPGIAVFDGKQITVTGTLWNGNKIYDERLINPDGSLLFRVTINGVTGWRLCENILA", 8.4),
    ("KAZ-V44I: KAZ with single amino acid substitution V44I, SEQ ID NO: 4 (protein) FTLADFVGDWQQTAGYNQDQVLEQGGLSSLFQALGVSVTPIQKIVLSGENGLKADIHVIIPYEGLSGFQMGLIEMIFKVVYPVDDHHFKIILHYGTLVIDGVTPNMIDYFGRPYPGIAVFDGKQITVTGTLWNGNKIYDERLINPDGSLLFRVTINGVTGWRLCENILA", 7.2),
]

Determine from records and report Relative Luminescence Activity CTZ Imax for KAZ-A54I-Y138I: KAZ mutant with two amino acid substitutions A54I and Y138I, SEQ ID NO: 14 (protein) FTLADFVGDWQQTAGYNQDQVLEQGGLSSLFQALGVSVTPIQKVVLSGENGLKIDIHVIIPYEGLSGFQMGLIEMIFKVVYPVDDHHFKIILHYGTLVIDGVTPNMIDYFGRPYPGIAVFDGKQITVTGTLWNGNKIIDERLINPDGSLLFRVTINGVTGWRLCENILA
23.1
